test: Clearance in rat at 0.4 mg/kg, iv; format: ADME, organism-based; parameters: dose 0.4 mg/kg, route intravenous; conditions: in vivo
VALUE_TYPE: clearance (mL/min/kg)
Could you give me the number in mL/min/kg? Just the number is fine.

C=C[C@@H]1C[C@]1(NC(=O)[C@@H]1C[C@@H](Oc2cc(-c3csc(NC(C)C)n3)nc3cc(OC)ccc23)CN1C(=O)[C@@H](NC(=O)OC1CCCC1)C(C)(C)C)P(=O)(O)Cc1ccccc1 has a reported clearance of 36.7

C=C[C@@H]1C[C@]1(NC(=O)[C@@H]1C[C@@H](Oc2cc(-c3csc(NC(C)C)n3)nc3cc(OC)ccc23)CN1C(=O)[C@@H](NC(=O)OC1CCCC1)C(C)(C)C)P(C)(=O)O has a reported clearance of 28.7

* * *

tested on: Hepatitis C virus; assay: Antiviral activity against HCV genotype 1b infected in Huh7 cells assessed as inhibition of viral replication by cell-based replicon assay; type: functional, organism-based, Hepacivirus hominis; settings: Huh-7
VALUE_TYPE: pEC50
Just so you know, pEC50 here is -log10 of the concentration in molar units; reply with that number alone.

Case C=C[C@@H]1C[C@]1(NC(=O)[C@@H]1C[C@@H](Oc2cc(-c3csc(NC(C)C)n3)nc3cc(OC)ccc23)CN1C(=O)[C@@H](NC(=O)OC1CCCC1)C(C)(C)C)P(=O)(O)c1ccccc1 , Hepatitis C virus, pEC50 recorded as 5.58

Case COc1ccc2c(O[C@@H]3C[C@H]4C(=O)N[C@]5(P(=O)(O)Cc6ccccc6OC)C[C@H]5/C=C/CCCCC[C@H](NC(=O)OC5CCCC5)C(=O)N4C3)cc(-c3csc(NC(C)C)n3)nc2c1 , Hepatitis C virus, pEC50 recorded as 8.05

Case COc1ccc2c(O[C@@H]3C[C@H]4C(=O)N[C@]5(P(=O)(O)Cc6ccccc6)C[C@H]5CCCCCCC[C@H](NC(=O)OC5CCCC5)C(=O)N4C3)cc(-c3csc(NC(C)C)n3)nc2c1 , Hepatitis C virus, pEC50 recorded as 8.30

Case COc1ccc2c(O[C@@H]3C[C@H]4C(=O)N[C@]5(P(=O)(O)O)C[C@H]5/C=C/CCCCC[C@H](NC(=O)OC5CCCC5)C(=O)N4C3)cc(-c3csc(NC(C)C)n3)nc2c1 , Hepatitis C virus, pEC50 recorded as 8.30

Case C=C[C@@H]1C[C@]1(NC(=O)[C@@H]1C[C@@H](Oc2cc(-c3csc(NC(C)C)n3)nc3cc(OC)ccc23)CN1C(=O)[C@@H](NC(=O)OC1CCCC1)C(C)(C)C)P(=O)(O)Cc1ccccc1 , Hepatitis C virus, pEC50 recorded as 6.74

Case COc1ccc2c(O[C@@H]3C[C@H]4C(=O)N[C@]5(C(=O)O)C[C@H]5C=CCCCCC[C@H](NC(=O)OC5CCCC5)C(=O)N4C3)cc(-c3csc(NC(C)C)n3)nc2c1 , Hepatitis C virus, pEC50 recorded as 9.00

* * *

test system: Hepatitis C virus; experiment: Antiviral activity against HCV genotype 1b infected in Huh7 cells assessed as inhibition of viral replication by cell-based replicon assay; assay type: functional, organism-based, Hepacivirus hominis; settings: Huh-7
pEC50: −log10 of the molar value.
Threshold rule: pEC50 greater than or equal to 7 is 1; below that, -1.

Does COc1ccc2c(O[C@@H]3C[C@H]4C(=O)N[C@]5(P(=O)(O)Cc6ccccc6)C[C@H]5/C=C/CCCCC[C@H](NC(=O)OC5CCCC5)C(=O)N4C3)cc(-c3csc(NC(C)C)n3)nc2c1 have a reported pEC50 of at least 7?
1

Does C=C[C@@H]1C[C@]1(NC(=O)[C@@H]1C[C@@H](Oc2cc(-c3csc(NC(C)C)n3)nc3cc(OC)ccc23)CN1C(=O)[C@@H](NC(=O)OC1CCCC1)C(C)(C)C)P(=O)(O)CCCC have a reported pEC50 of at least 7?
1

Does C=C[C@@H]1C[C@]1(NC(=O)[C@@H]1C[C@@H](Oc2cc(-c3csc(NC(C)C)n3)nc3cc(OC)ccc23)CN1C(=O)[C@@H](NC(=O)OC1CCCC1)C(C)(C)C)P(=O)(O)Cc1ccccc1OC have a reported pEC50 of at least 7?
1

Does C=C[C@@H]1C[C@]1(NC(=O)[C@@H]1C[C@@H](Oc2cc(-c3csc(NC(C)C)n3)nc3cc(OC)ccc23)CN1C(=O)[C@@H](NC(=O)OC1CCCC1)C(C)(C)C)P(=O)(O)C(C)C have a reported pEC50 of at least 7?
-1

Does COc1ccc2c(O[C@@H]3C[C@H]4C(=O)N[C@]5(P(=O)(O)Cc6ccccc6OC)C[C@H]5CCCCCCC[C@H](NC(=O)OC5CCCC5)C(=O)N4C3)cc(-c3csc(NC(C)C)n3)nc2c1 have a reported pEC50 of at least 7?
1

Does COc1ccc2c(O[C@@H]3C[C@H]4C(=O)N[C@]5(P(=O)(O)Cc6ccccc6Cl)C[C@H]5CCCCCCC[C@H](NC(=O)OC5CCCC5)C(=O)N4C3)cc(-c3csc(NC(C)C)n3)nc2c1 have a reported pEC50 of at least 7?
1

Does C=C[C@@H]1C[C@]1(NC(=O)[C@@H]1C[C@@H](Oc2cc(-c3csc(NC(C)C)n3)nc3cc(OC)ccc23)CN1C(=O)[C@@H](NC(=O)OC1CCCC1)C(C)(C)C)P(=O)(O)Cc1ccccc1Cl have a reported pEC50 of at least 7?
-1

Does COc1ccc2c(O[C@@H]3C[C@H]4C(=O)N[C@]5(P(=O)(O)Cc6ccccc6Cl)C[C@H]5/C=C/CCCCC[C@H](NC(=O)OC5CCCC5)C(=O)N4C3)cc(-c3csc(NC(C)C)n3)nc2c1 have a reported pEC50 of at least 7?
1

Does C=C[C@@H]1C[C@]1(NC(=O)[C@@H]1C[C@@H](Oc2cc(-c3csc(NC(C)C)n3)nc3cc(OC)ccc23)CN1C(=O)[C@@H](NC(=O)OC1CCCC1)C(C)(C)C)P(=O)(O)CC have a reported pEC50 of at least 7?
-1
